Where do these numbers come from? They come from patent US20250213705A1.

Molecular target: human FOLH1 (Homo sapiens (Human))
Test: SPR analysis of binding kinetics to biotinylated FOLH1 (Biacore 8K)
Conditions: ligand PSMA, dissociation rate
Experimental: The interaction of PSMA-binding variants with human FOLH1 was measured with Surface Plasmon Resonance (SPR) technology. Biotinylated FOLH1 was captured at a concentration of 30 μg/mL onto a Streptavidin chip. Binding kinetics of the analytes were measured with a Biacore 8K instrument in two-fold serial dilutions starting at 500 nM down to 1.95 nM in single cycle kinetic measurements. After each cycle, needles were washed with 50% DMSO. […]
Think of 0.0003 s⁻¹ as a floor: if koff stands on it or above, it is Y; beneath it, N.

# compound, target, class assignment
rows = [
    ("CC(=O)NCCOCCOCCOCCC(=O)N[C@@H](CCCOc1cc(C#N)cc(C#N)c1)C(=O)NCC(=O)N[C@@H](Cc1ccc2ccccc2c1)C(=O)NCCCC[C@H](NC(=O)N[C@@H](CCC(=O)O)C(=O)O)C(=O)O", "human FOLH1 (Homo sapiens (Human))", "Y"),
    ("CC(=O)NCCOCCOCCOCCC(=O)N1C[C@H](NC(=O)COc2cc(C#N)cc(C#N)c2)C[C@H]1C(=O)N[C@@H](Cc1ccc2ccccc2c1)C(=O)NCCCC[C@H](NC(=O)N[C@@H](CCC(=O)O)C(=O)O)C(=O)O", "human FOLH1 (Homo sapiens (Human))", "Y"),
    ("CC(=O)NCCOCCOCCOCCC(=O)N[C@@H]1C[C@@H](C(=O)N[C@@H](Cc2ccc3ccccc3c2)C(=O)NCCCC[C@H](NC(=O)N[C@@H](CCC(=O)O)C(=O)O)C(=O)O)N(C(=O)COc2cc(C#N)cc(C#N)c2)C1", "human FOLH1 (Homo sapiens (Human))", "Y"),
    ("CC(=O)NCCOCCOCCOCCC(=O)NC[C@H]1CC[C@H](C(=O)N[C@@H](Cc2c[nH]c3ccccc23)C(=O)NCCCC[C@H](NC(=O)N[C@@H](CCC(=O)O)C(=O)O)C(=O)O)CC1 (stereo in doubt)", "human FOLH1 (Homo sapiens (Human))", "N"),
    ("CC(=O)NCCOCCOCCOCCC(=O)N(CCCOc1ccc(F)cc1F)CC(=O)NC[C@H]1CC[C@H](C(=O)N[C@@H](Cc2ccc3ccccc3c2)C(=O)NCCCC[C@H](NC(=O)N[C@@H](CCC(=O)O)C(=O)O)C(=O)O)CC1", "human FOLH1 (Homo sapiens (Human))", "N"),
    ("CC(=O)NCCOCCOCCOCCC(=O)N(CCCCOc1cc(C(F)(F)F)cc(C(F)(F)F)c1)CC(=O)N[C@@H](Cc1ccc2ccccc2c1)C(=O)NCCCC[C@H](NC(=O)N[C@@H](CCC(=O)O)C(=O)O)C(=O)O", "human FOLH1 (Homo sapiens (Human))", "Y"),
    ("CC(=O)NCCOCCOCCOCCC(=O)N1C[C@H](NC(=O)COc2cc(C#N)cc(C#N)c2)C[C@H]1C(=O)NCC(=O)N[C@@H](Cc1ccc2ccccc2c1)C(=O)NCCCC[C@H](NC(=O)N[C@@H](CCC(=O)O)C(=O)O)C(=O)O", "human FOLH1 (Homo sapiens (Human))", "Y"),
    ("CC(=O)NCCOCCOCCOCCC(=O)NC[C@H]1CC[C@H](C(=O)N[C@@H](Cc2c[nH]c3ccc(F)cc23)C(=O)NCCCC[C@H](NC(=O)N[C@@H](CCC(=O)O)C(=O)O)C(=O)O)CC1", "human FOLH1 (Homo sapiens (Human))", "N"),
    ("CC(=O)NCCOCCOCCOCCC(=O)N(CCCCOc1cc(C#N)cc(C#N)c1)CC(=O)N[C@@H](Cc1ccc2ccccc2c1)C(=O)NCCCC[C@H](NC(=O)N[C@@H](CCC(=O)O)C(=O)O)C(=O)O", "human FOLH1 (Homo sapiens (Human))", "N"),
    ("CC(=O)NCCOCCOCCOCCC(=O)NC[C@H]1CC[C@H](C(=O)N[C@@H](Cc2ccc(OCc3ccccc3)cc2)C(=O)NCCCC[C@H](NC(=O)N[C@@H](CCC(=O)O)C(=O)O)C(=O)O)CC1", "human FOLH1 (Homo sapiens (Human))", "Y"),
    ("CC(=O)NCCOCCOCCOCCC(=O)N[C@@H](CCCOc1ccc(F)cc1F)C(=O)NC[C@H]1CC[C@H](C(=O)N[C@@H](Cc2ccc3ccccc3c2)C(=O)NCCCC[C@H](NC(=O)N[C@@H](CCC(=O)O)C(=O)O)C(=O)O)CC1", "human FOLH1 (Homo sapiens (Human))", "N"),
    ("CC(=O)NCCOCCOCCOCCC(=O)NC[C@H]1CC[C@H](C(=O)N[C@@H](Cc2ccc3ccccc3c2)C(=O)NCCCC[C@H](NC(=O)N[C@@H](CCCC(=O)O)C(=O)O)C(=O)O)CC1", "human FOLH1 (Homo sapiens (Human))", "Y"),
    ("C=CC[C@H](NC(=O)CCOCCOCCOCCNC(C)=O)C(=O)NC[C@H]1CC[C@H](C(=O)N[C@@H](Cc2ccc3ccccc3c2)C(=O)NCCCC[C@H](NC(=O)N[C@@H](CCC(=O)O)C(=O)O)C(=O)O)CC1", "human FOLH1 (Homo sapiens (Human))", "N"),
    ("CC(=O)NCCOCCOCCOCCC(=O)N[C@@H](Cc1ccc(C(=O)O)cc1)C(=O)NCCCC(=O)N[C@@H](Cc1ccc2ccccc2c1)C(=O)NCCCC[C@H](NC(=O)N[C@@H](CCC(=O)O)C(=O)O)C(=O)O", "human FOLH1 (Homo sapiens (Human))", "Y"),
    ("CC(=O)NCCOCCOCCOCCC(=O)NC[C@H]1CC[C@H](C(=O)N[C@H](Cc2c[nH]c3ccccc23)C(=O)NCCCC[C@H](NC(=O)N[C@@H](CCC(=O)O)C(=O)O)C(=O)O)CC1", "human FOLH1 (Homo sapiens (Human))", "Y"),
    ("CC(=O)NCCOCCOCCOCCC(=O)N1C[C@H](NC(=O)CCCOc2cc(C#N)cc(C#N)c2)C[C@H]1C(=O)NCC(=O)N[C@@H](Cc1ccc2ccccc2c1)C(=O)NCCCC[C@H](NC(=O)N[C@@H](CCC(=O)O)C(=O)O)C(=O)O", "human FOLH1 (Homo sapiens (Human))", "N"),
    ("CC(=O)NCCOCCOCCOCCC(=O)N(CCCOc1cc(C#N)cc(C#N)c1)CC(=O)N[C@@H](Cc1ccc2ccccc2c1)C(=O)NCCCC[C@H](NC(=O)N[C@@H](CCC(=O)O)C(=O)O)C(=O)O", "human FOLH1 (Homo sapiens (Human))", "N"),
]

====

Target: Recombinant Human PSMA/FOLH1 Protein (Homo sapiens (Human), UniProt Q04609)
Sequence (Q04609 whole entry): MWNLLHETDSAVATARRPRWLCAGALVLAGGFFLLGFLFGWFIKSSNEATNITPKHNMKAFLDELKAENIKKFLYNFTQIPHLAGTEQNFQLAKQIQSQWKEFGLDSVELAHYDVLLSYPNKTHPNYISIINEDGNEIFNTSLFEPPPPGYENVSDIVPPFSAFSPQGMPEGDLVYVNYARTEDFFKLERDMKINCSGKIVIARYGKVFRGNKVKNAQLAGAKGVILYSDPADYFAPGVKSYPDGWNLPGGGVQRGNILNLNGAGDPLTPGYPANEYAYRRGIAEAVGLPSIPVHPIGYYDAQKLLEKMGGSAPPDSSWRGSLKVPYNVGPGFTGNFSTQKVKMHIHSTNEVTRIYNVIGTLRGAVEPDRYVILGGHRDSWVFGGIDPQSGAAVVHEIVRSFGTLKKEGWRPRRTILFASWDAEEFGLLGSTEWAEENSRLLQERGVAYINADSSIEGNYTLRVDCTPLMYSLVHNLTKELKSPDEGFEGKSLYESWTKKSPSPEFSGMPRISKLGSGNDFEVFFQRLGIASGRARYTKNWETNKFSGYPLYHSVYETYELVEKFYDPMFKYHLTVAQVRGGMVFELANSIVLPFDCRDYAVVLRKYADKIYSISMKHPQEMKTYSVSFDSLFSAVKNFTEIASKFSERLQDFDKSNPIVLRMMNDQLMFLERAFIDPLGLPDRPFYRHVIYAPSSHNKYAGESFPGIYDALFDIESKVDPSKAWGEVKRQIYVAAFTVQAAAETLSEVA
Experiment: Inhibition assay (Amplex Red glutamic acid/glutamate oxidase, NAAG substrate)
Settings: Target PSMA; calculated based on Cheng-Prusoff equation; average of N replicates
attribute measured: Ki (nM)

# molecule, observed result
rows = [
    ("CC(=O)NCCOCCOCCOCCC(=O)NC[C@H]1CC[C@H](C(=O)N[C@H](Cc2ccc(O)cc2)C(=O)NCCCC[C@H](NC(=O)N[C@@H](CCC(=O)O)C(=O)O)C(=O)O)CC1 [Compound 43]", 4.86),
    ("CC(=O)NCCOCCOCCOCCC(=O)NC[C@H]1CC[C@H](C(=O)N[C@@H](Cc2c[nH]cn2)C(=O)NCCCC[C@H](NC(=O)N[C@@H](CCC(=O)O)C(=O)O)C(=O)O)CC1 [Compound 9]", 7.74),
    ("CC(=O)NCCOCCOCCOCCC(=O)NC[C@H]1CC[C@H](C(=O)N[C@@H](Cc2cccc(C(=O)O)c2)C(=O)NCCCC[C@H](NC(=O)N[C@@H](CCC(=O)O)C(=O)O)C(=O)O)CC1 [Compound 10]", 0.152),
]

====

Recorded Kon, one value per entry.
Molecular target: human FOLH1 (Homo sapiens (Human), UniProt Q04609)
Sequence (Q04609 whole entry): as above
Assay: SPR analysis of binding kinetics to biotinylated FOLH1 (Biacore 8K)
Conditions: ligand PSMA, association rate
attribute measured: Kon

# smiles text, attribute measured, observed result
records = [
    ("CC(=O)NCCOCCOCCOCCC(=O)N[C@@H](CCCOc1cc(C#N)cc(C#N)c1)C(=O)NCC(=O)N[C@@H](Cc1ccc2ccccc2c1)C(=O)NCCCC[C@H](NC(=O)N[C@@H](CCC(=O)O)C(=O)O)C(=O)O", "Kon", "291000 1.ms"),
    ("CC(=O)NCCOCCOCCOCCC(=O)N[C@@H](Cc1ccc(C(=O)O)cc1)C(=O)NCC(=O)N[C@@H](Cc1ccc2ccccc2c1)C(=O)NCCCC[C@H](NC(=O)N[C@@H](CCC(=O)O)C(=O)O)C(=O)O", "Kon", "112000 1.ms"),
    ("CC(=O)NCCOCCOCCOCCC(=O)NC[C@H]1CC[C@H](C(=O)N[C@@H](Cc2c[nH]c3ccc(F)cc23)C(=O)NCCCC[C@H](NC(=O)N[C@@H](CCC(=O)O)C(=O)O)C(=O)O)CC1", "Kon", "250000 1.ms"),
]
